Values compiled from patent US8207156B2.

molecular target: recombinant human cannabinoid 1 receptor (CB1) (Homo sapiens, UniProt P21554); assay: In vitro determination of antagonism to CB1-receptor ([35S]GTPγS binding assay, CHO cell membranes); assay type: biochemical; details: compound at 1 μM against agonist WIN 55,212-2 (3 nM to 3 μM); effect of Rimonabant (1 μM) defined as 100%
Sequence (P21554 whole entry): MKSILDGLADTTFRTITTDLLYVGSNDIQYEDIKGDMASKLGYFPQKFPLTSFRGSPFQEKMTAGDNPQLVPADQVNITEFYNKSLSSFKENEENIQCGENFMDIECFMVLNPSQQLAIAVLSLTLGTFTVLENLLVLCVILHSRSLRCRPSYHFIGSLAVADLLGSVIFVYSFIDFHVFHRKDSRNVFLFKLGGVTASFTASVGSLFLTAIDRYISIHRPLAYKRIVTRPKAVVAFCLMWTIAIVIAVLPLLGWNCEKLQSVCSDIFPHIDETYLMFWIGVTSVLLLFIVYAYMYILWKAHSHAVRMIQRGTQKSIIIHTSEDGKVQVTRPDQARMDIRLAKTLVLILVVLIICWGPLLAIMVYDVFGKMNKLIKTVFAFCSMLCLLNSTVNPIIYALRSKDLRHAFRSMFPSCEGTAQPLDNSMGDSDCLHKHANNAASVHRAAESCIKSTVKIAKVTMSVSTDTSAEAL
observedProperty: Antagonism [%] (%)

Worked cases, Antagonism [%] given:
compound	observedProperty	measuredResult
O=C(NN1CCN(C2CCCC2)CC1)C1=NN(c2ccc(Cl)cc2Cl)C(c2ccc(Cl)cc2)C1 (stereo not drawn)	Antagonism [%]	52
O=C(C1=NN(c2ccc(Cl)cc2Cl)C(c2ccc(Cl)cc2)C1)N1CCC1 (stereo not drawn)	Antagonism [%]	32
CC1(C)[C@@H]2CC[C@@]1(C)[C@@H](NC(=O)C1=NN(c3ccc(Cl)cc3Cl)C(c3ccc(Cl)cc3)C1)C2 (stereo partly drawn)	Antagonism [%]	47
O=C(C1=NN(c2ccc(Cl)cc2Cl)C(c2ccc(Cl)cc2)C1)N1CCC(N2CCCCC2)CC1 (stereo not drawn)	Antagonism [%]	−13

1. O=C(NN1CCOCC1)C1=NN(c2ccc(Cl)cc2Cl)C(c2ccc(Cl)cc2)C1 (stereo not drawn)
2. COC(=O)C1=NN(c2ccc(Cl)cc2Cl)C(c2ccc(Cl)cc2)C1 (stereo not drawn)
3. O=C(NN1CCCCC1)C1=NN(c2ccc(Cl)cc2Cl)C(c2ccc(F)cc2)C1 (stereo not drawn)
Rank the items in ascending order with respect to Antagonism [%]. Sort the labels as requested; that list is your answer.
2, 1, 3
(2: 23%, 1: 54%, 3: 91%)
